Each entry below carries its recorded MIC.
Tested on: Klebsiella pneumoniae PCI 602
Assay: Minimum Inhibitory Concentration (MIC), antibacterial spectrum in vitro
Format: cell-based
Details: PCI602; Klebsiella pneumoniae PCI 602; read-out: Minimum Inhibitory Concentration (MIC)
Structures can show the parent of a compound that is named as a salt.

Compound: CC1OC2C(NC(=O)C(=NOC(C)(C)C(=O)O)c3csc(N)n3)C(=O)N2C(C(=O)[O-])=C1CSc1cc[n+](CCF)cc1 (stereo not drawn) [Compound 3, (Sodium Salt)]
MIC (µg/mL): 0.2

Compound: CC1OC2C(NC(=O)C(=NOC(C)(C)C(=O)O)c3csc(N)n3)C(=O)N2C(C(=O)[O-])=C1CSc1cc[n+](C(CF)CF)cc1 (stereo not drawn) [Compound 17, (Sodium Salt)]
MIC (µg/mL): 0.05

Compound: CC1OC2C(NC(=O)C(=NOC(C)(C)C(=O)O)c3csc(N)n3)C(=O)N2C(C(=O)[O-])=C1CSc1cc[n+](C)cc1 (stereo not drawn) [Compound 1, (Sodium Salt)]
MIC (µg/mL): 0.2

Compound: CC[n+]1ccc(SCC2=C(C(=O)[O-])N3C(=O)C(NC(=O)C(=NOC(C)(C)C(=O)O)c4csc(N)n4)C3OC2C)cc1 (stereo not drawn) [Compound 2, (Sodium Salt)]
MIC (µg/mL): 0.2

Compound: C[n+]1ccc(SCC2=C(C(=O)[O-])N3C(=O)C(NC(=O)C(=NOCC(=O)O)c4csc(N)n4)C3OC2)cc1 (stereo not drawn) [Compound 13, (Sodium Salt)]
MIC (µg/mL): 25

Compound: CC(C)(ON=C(C(=O)NC1C(=O)N2C(C(=O)[O-])=C(CSc3cc[n+](CC(F)(F)F)cc3)COC12)c1csc(N)n1)C(=O)O (stereo not drawn) [Compound 16, (Sodium Salt)]
MIC (µg/mL): 0.1

====

System: Proteus morganii 1510
Test: Minimum Inhibitory Concentration (MIC), antibacterial spectrum in vitro
Type: cell-based
Details: Morganella morganii; Proteus morganii 1510; read-out: Minimum Inhibitory Concentration (MIC)
Where a name gives a salt, the structure may show the parent alone.
Mark yes for MIC under 0.8 µg/mL, no if at or over.

Compound: CCN1CCN(C(=O)NC(C(=O)NC2C(=O)N3C(C(=O)[O-])=C(CSc4cc[n+](CC(=O)O)cc4)COC23)c2csc(N)n2)C(=O)C1=O (racemic) [Compound 21, (Sodium Salt)]
Target Of Assay: Proteus morganii 1510
Label Value: no

Compound: CC1OC2C(NC(=O)C(=NOC(C)(C)C(=O)O)c3csc(N)n3)C(=O)N2C(C(=O)[O-])=C1CSc1cc[n+](CCF)cc1 (centres unmarked) [Compound 3, (Sodium Salt)]
Target Of Assay: Proteus morganii 1510
Label Value: yes

Compound: C[n+]1ccc(SCC2=C(C(=O)[O-])N3C(=O)C(NC(=O)C(=NOCC(=O)O)c4csc(N)n4)C3OC2)cc1 (centres unmarked) [Compound 13, (Sodium Salt)]
Target Of Assay: Proteus morganii 1510
Label Value: no

Compound: CCON=C(C(=O)NC1C(=O)N2C(C(=O)[O-])=C(CSc3cc[n+](CC(=O)O)cc3)COC12)c1csc(N)n1 (centres unmarked) [Compound 12, (Sodium Salt)]
Target Of Assay: Proteus morganii 1510
Label Value: no

Compound: CC1OC2C(NC(=O)C(=NOC(C)(C)C(=O)O)c3csc(N)n3)C(=O)N2C(C(=O)[O-])=C1CSc1cc[n+](CC(F)(F)F)cc1 (centres unmarked) [Compound 4, (Sodium Salt)]
Target Of Assay: Proteus morganii 1510
Label Value: yes

Compound: CC1OC2C(NC(=O)C(=NOC(C)(C)C(=O)O)c3csc(N)n3)C(=O)N2C(C(=O)[O-])=C1CSc1cc[n+](C(CF)CF)cc1 (centres unmarked) [Compound 17, (Sodium Salt)]
Target Of Assay: Proteus morganii 1510
Label Value: yes

Compound: CCN1CCN(C(=O)NC(C(=O)NC2C(=O)N3C(C(=O)[O-])=C(CSc4cc[n+](C)cc4)COC23)c2csc(N)n2)C(=O)C1=O (racemic) [Compound 20, (Sodium Salt)]
Target Of Assay: Proteus morganii 1510
Label Value: no

Compound: CC(C)(ON=C(C(=O)NC1C(=O)N2C(C(=O)[O-])=C(CSc3cc[n+](CCF)cc3)COC12)c1csc(N)n1)C(=O)O (centres unmarked) [Compound 15]
Target Of Assay: Proteus morganii 1510
Label Value: no

Compound: CO[C@@]1(NC(=O)C(C(=O)O)c2ccc(O)cc2)C(=O)N2C(C(=O)O)=C(CSc3nnnn3C)CO[C@@H]21 (some centres unmarked) [Latamoxef, reference compound]
Target Of Assay: Proteus morganii 1510
Label Value: yes

Compound: C[n+]1ccc(SCC2=C(C(=O)[O-])N3C(=O)C(NC(=O)C(=NOC(C)(C)C(=O)O)c4csc(N)n4)C3OC2)cc1 (centres unmarked) [Compound 14, (Sodium Salt)]
Target Of Assay: Proteus morganii 1510
Label Value: no
